assay: Cytotoxicity against African green monkey Vero cells infected with USUV 3345 isolate Arb276 pretreated with virus for 1 hr followed by infection of cells with compound treated-virus for 20 hrs by MTS assay; format: toxicity, cell-based; conditions: chlorocebus sabaeus
Measurement Kind: CC50 at 21 h (µM)
Give the value, in units of µM, as a plain number.

> print(dat)
                                   molecule  measurement.kind  readout.number
1  C=C1/C(=C\C=C2/CCC[C@]3(C)[C@@H]([C@H](C)/C=C/C=C/C(O)(CC)CC)CC[C@@H]23)C[C@@H](O)C[C@@H]1O [SEOCALCITOL]      CC50 at 21 h            11.9

Field request: CC50 at 21 h | item: CCN(CC)CCCC(C)Nc1ccnc2cc(Cl)ccc12 (centres undefined) [CHLOROQUINE]
115

###

Form field: CC50 at 31 h (one value per entry).
assay: Cytotoxicity against African green monkey Vero cells infected with ZIKV MR766 pretreated with virus for 1 hr followed by infection of cells with compound treated-virus for 30 hrs by MTS assay; type: toxicity, cell-based; conditions: chlorocebus sabaeus
Supply the numeric figure in µM, leaving out any unit text.

Request the reported CC50 at 31 h associated with `C=C1/C(=C\C=C2/CCC[C@]3(C)[C@@H]([C@H](C)/C=C/C=C/C(O)(CC)CC)CC[C@@H]23)C[C@@H](O)C[C@@H]1O`
11

Here is the next compound: CCN(CC)CCCC(C)Nc1ccnc2cc(Cl)ccc12 (centres undefined)
136

###

Listing: CC50 at 31 h of selected molecules
assay: Cytotoxicity against human A549 cells infected with ZIKV MR766 pretreated with virus for 1 hr followed by infection of cells with compound treated-virus for 30 hrs by MTS assay; format: toxicity, cell-based

> print(dat)
                                   molecule    result
1  O=C1[C@@H]2CCCN2[C@@H](c2ccc([C@H]3C[C@@H](O)[C@@H](CO)O3)cc2)N1c1ccc([N+](=O)[O-])cc1  > 500 µM
2  CCN(CC)CCCC(C)Nc1ccnc2cc(Cl)ccc12 (stereo not drawn) [CHLOROQUINE]   80.5 µM

What value of CC50 at 31 h has been reported for the following molecule? `O=C1C[C@H](c2ccc([C@H]3N(c4ccc([N+](=O)[O-])cc4)C(=O)[C@@H]4CCCN43)cc2)O[C@@H]1CO`
> 500 µM

###

assay: Cytotoxicity against human Huh-7 cells infected with USUV 3345 isolate Arb276 pretreated with virus for 1 hr followed by infection of cells with compound treated-virus for 20 hrs by MTS assay; assay type: toxicity, cell-based
Measurement Kind: CC50 at 21 h

> print(dat)
                                   compound  measurement.kind   result
1  CCN(CC)CCCC(C)Nc1ccnc2cc(Cl)ccc12 (stereo not drawn) [CHLOROQUINE]      CC50 at 21 h  75.5 µM

Form field: reported CC50 at 21 h of `O=C1[C@@H]2CCCN2[C@@H](c2ccc([C@H]3C[C@@H](O)[C@@H](CO)O3)cc2)N1c1ccc([N+](=O)[O-])cc1`
> 500 µM

Check `O=C1C[C@H](c2ccc([C@H]3N(c4ccc([N+](=O)[O-])cc4)C(=O)[C@@H]4CCCN43)cc2)O[C@@H]1CO` too.
> 500 µM

###

experiment: Selectivity index, ratio of CC50 for African green monkey Vero cells infected with ZIKV MR766 to EC50 for ZIKV MR766 infected in African green monkey Vero cells; format: toxicity, cell-based; conditions: read-out: Ratio CC50/EC50
Reported selectivity ratio by item:

> print(dat)
                                smiles.text  result
1  O=C1C[C@H](c2ccc([C@H]3N(c4ccc([N+](=O)[O-])cc4)C(=O)[C@@H]4CCCN43)cc2)O[C@@H]1CO    > 51
2  C=C1/C(=C\C=C2/CCC[C@]3(C)[C@@H]([C@H](C)/C=C/C=C/C(O)(CC)CC)CC[C@@H]23)C[C@@H](O)C[C@@H]1O     1.5

Which selectivity ratio value is on record for `O=C1[C@@H]2CCCN2[C@@H](c2ccc([C@H]3C[C@@H](O)[C@@H](CO)O3)cc2)N1c1ccc([N+](=O)[O-])cc1` ?
> 63

###

experiment: Aqueous solubility in deionized water containing 1.38% DMSO; type: physicochemical
Each entry below carries its recorded solubility.

The cases that follow already have their solubility on record.
> print(dat)
                                smiles.text       result
1  O=C1C[C@H](c2ccc([C@H]3N(c4ccc([N+](=O)[O-])cc4)C(=O)[C@@H]4CCCN43)cc2)O[C@@H]1CO  > 897 µg/mL
2  COc1cc([C@H]2N(c3ccc([N+](=O)[O-])cc3)C(=O)[C@@H]3CCCN32)ccc1O    518 µg/mL

// solubility lookup, key: `O=C1[C@@H]2CCCN2[C@@H](c2ccc([C@H]3C[C@@H](O)[C@@H](CO)O3)cc2)N1c1ccc([N+](=O)[O-])cc1`
> 947 µg/mL

###

// reported pEC50 for each item listed
system: Zika virus; test: Antiviral activity against ZIKV MR766 infected in human A549 cells assessed as reduction in viral replication pretreated with virus for 1 hr followed by infection of cells with compound treated-virus for 30 hrs by focus reduction assay; type: functional, organism-based
# pEC50 = -log10(concentration in molar units)

What reported pEC50 corresponds to `O=C1C[C@H](c2ccc([C@H]3N(c4ccc([N+](=O)[O-])cc4)C(=O)[C@@H]4CCCN43)cc2)O[C@@H]1CO` on Zika virus?
5.42

Continue with `O=C1[C@@H]2CCCN2[C@@H](c2ccc([C@H]3C[C@@H](O)[C@@H](CO)O3)cc2)N1c1ccc([N+](=O)[O-])cc1`
5.40

Repeat with CCN(CC)CCCC(C)Nc1ccnc2cc(Cl)ccc12 (stereo not drawn)
5.22

###

test system: Usutu virus; test: Antiviral activity against USUV 3345 isolate Arb276 infected in African green monkey Vero cells assessed as viral growth inhibition at 11 to 100 uM pretreated with virus for 1 hr followed by infection of cells with compound treated-virus for 20 hrs by focus reduction assay; format: functional, organism-based; settings: dose 11-100 µM, time 21.0 hrs
Active and inactive are the calls of the source. The calls are words filed in the database; no cut-off is given here.
Measurement Kind: Activity

Examples from the recorded data:
> print(dat)
                                smiles.text       system  measurement.kind    result
1  COc1cc(C[C@H]2N(c3ccc([N+](=O)[O-])cc3)C(=O)[C@@H]3CCCN32)ccc1O  Usutu virus          Activity  inactive
2  COc1ccc([C@H]2N(c3ccc([N+](=O)[O-])cc3)C(=O)[C@@H]3CCCN32)cc1OC  Usutu virus          Activity  inactive
3  O=C1[C@@H]2CCCN2[C@@H](c2ccco2)N1Nc1ccc([N+](=O)[O-])cc1  Usutu virus          Activity  inactive
4  COc1ccc(C[C@H]2N(Nc3ccc([N+](=O)[O-])cc3)C(=O)[C@@H]3CCCN32)cc1OC  Usutu virus          Activity  inactive

Form field: reported Activity of `COc1ccc([C@H]2N(c3ccc([N+](=O)[O-])cc3)C(=O)[C@@H]3CCCN32)cc1O`
inactive

###

assay: Selectivity index, ratio of CC50 for African green monkey Vero cells infected with ZIKV HPF2013 to EC50 for ZIKV HPF2013 infected in African green monkey Vero cells; type: toxicity, cell-based; details: read-out: Ratio CC50/EC50
Measurement Kind: selectivity ratio
Note: the reply should be a number with no unit written.

What value of selectivity ratio has been reported for the following compound? `C=C1/C(=C\C=C2/CCC[C@]3(C)[C@@H]([C@H](C)/C=C/C=C/C(O)(CC)CC)CC[C@@H]23)C[C@@H](O)C[C@@H]1O`
3.9

The reported numbers originate from ChEMBL document CHEMBL5325402.
